Reference source for all entries: patent US6521662B2

Assay: Solubility of natural ceramide and ceramide-like compounds in cosmetic solvents
Format: physicochemical
Details: 20° C.; dissolved at 80° C. then cooled to 20° C.
Exercise: for every item that follows, state its recorded Solubility in Cetyl octanoate.

Quick note, Solubility in Cetyl octanoate for Cc1cc(OC(=O)CCC(=O)N(CCO)CC(O)CN(CCO)C(=O)CCC(=O)Oc2cc(C)c3c(c2)CCC(C)(CCCC(C)CCCC(C)CCCC(C)C)O3)cc2c1OC(C)(CCCC(C)CCCC(C)CCCC(C)C)CC2 (stereo not shown) landed at >5% wt/wt %

Quick note, Solubility in Cetyl octanoate for Cc1c(OC(=O)CCC(=O)N(CCO)CC(O)CN(CCO)C(=O)CCC(=O)Oc2cc3c(c(C)c2C)OC(C)(CCCC(C)CCCC(C)CCCC(C)C)CC3)cc2c(c1C)OC(C)(CCCC(C)CCCC(C)CCCC(C)C)CC2 (stereo not shown) landed at >5% wt/wt %

Quick note, Solubility in Cetyl octanoate for CCCCCCCCCCCCCCCCCCCCCCCC(=O)NC(CO)C(O)C(O)CCCCCCCCCCCCCC (stereo not shown) [Natural Ceramide (type 3), reference compound] landed at <1% wt/wt %

Quick note, Solubility in Cetyl octanoate for Cc1c(C)c2c(c(C)c1OC(=O)CCC(=O)N(CCO)CC(O)CN(CCO)C(=O)CCC(=O)Oc1c(C)c(C)c3c(c1C)CCC(C)(CCCC(C)CCCC(C)CCCC(C)C)O3)CCC(C)(CCCC(C)CCCC(C)CCCC(C)C)O2 (stereo not shown) landed at >5% wt/wt %

###

Assay: Solubility of natural ceramide and ceramide-like compounds in cosmetic solvents
Format: physicochemical
Settings: 20° C.; dissolved at 80° C. then cooled to 20° C.
PROPERTY LABEL: Solubility in Isopropyl palmitate

Quick note, Solubility in Isopropyl palmitate for CCCCCCCCCCCCCCCCCCCCCCCC(=O)NC(CO)C(O)C(O)CCCCCCCCCCCCCC (stereo not shown) [Natural Ceramide (type 3), reference compound] landed at <1% wt/wt %

Quick note, Solubility in Isopropyl palmitate for Cc1c(C)c2c(c(C)c1OC(=O)CCC(=O)N(CCO)CC(O)CN(CCO)C(=O)CCC(=O)Oc1c(C)c(C)c3c(c1C)CCC(C)(CCCC(C)CCCC(C)CCCC(C)C)O3)CCC(C)(CCCC(C)CCCC(C)CCCC(C)C)O2 (stereo not shown) [Example 1] landed at >5% wt/wt %

Quick note, Solubility in Isopropyl palmitate for Cc1c(OC(=O)CCC(=O)N(CCO)CC(O)CN(CCO)C(=O)CCC(=O)Oc2cc3c(c(C)c2C)OC(C)(CCCC(C)CCCC(C)CCCC(C)C)CC3)cc2c(c1C)OC(C)(CCCC(C)CCCC(C)CCCC(C)C)CC2 (stereo not shown) [Example 3] landed at >5% wt/wt %

Quick note, Solubility in Isopropyl palmitate for Cc1cc(OC(=O)CCC(=O)N(CCO)CC(O)CN(CCO)C(=O)CCC(=O)Oc2cc(C)c3c(c2)CCC(C)(CCCC(C)CCCC(C)CCCC(C)C)O3)cc2c1OC(C)(CCCC(C)CCCC(C)CCCC(C)C)CC2 (stereo not shown) [Example 2] landed at >5% wt/wt %

###

Exercise: for every item that follows, state its recorded Solubility in Octyl Palmitate.
Test: Solubility of natural ceramide and ceramide-like compounds in cosmetic solvents
Format: physicochemical
Details: 20° C.; dissolved at 80° C. then cooled to 20° C.

Quick note, Solubility in Octyl Palmitate for Cc1c(C)c2c(c(C)c1OC(=O)CCC(=O)N(CCO)CC(O)CN(CCO)C(=O)CCC(=O)Oc1c(C)c(C)c3c(c1C)CCC(C)(CCCC(C)CCCC(C)CCCC(C)C)O3)CCC(C)(CCCC(C)CCCC(C)CCCC(C)C)O2 (stereo not shown) landed at >5% wt/wt %

Quick note, Solubility in Octyl Palmitate for Cc1cc(OC(=O)CCC(=O)N(CCO)CC(O)CN(CCO)C(=O)CCC(=O)Oc2cc(C)c3c(c2)CCC(C)(CCCC(C)CCCC(C)CCCC(C)C)O3)cc2c1OC(C)(CCCC(C)CCCC(C)CCCC(C)C)CC2 (stereo not shown) landed at >5% wt/wt %

Quick note, Solubility in Octyl Palmitate for CCCCCCCCCCCCCCCCCCCCCCCC(=O)NC(CO)C(O)C(O)CCCCCCCCCCCCCC (stereo not shown) [Natural Ceramide (type 3), reference compound] landed at <1% wt/wt %

Quick note, Solubility in Octyl Palmitate for Cc1c(OC(=O)CCC(=O)N(CCO)CC(O)CN(CCO)C(=O)CCC(=O)Oc2cc3c(c(C)c2C)OC(C)(CCCC(C)CCCC(C)CCCC(C)C)CC3)cc2c(c1C)OC(C)(CCCC(C)CCCC(C)CCCC(C)C)CC2 (stereo not shown) landed at >5% wt/wt %

###

Exercise: for every item that follows, state its recorded Solubility in Ethanol.
Assay: Solubility of natural ceramide and ceramide-like compounds in cosmetic solvents
Assay type: physicochemical
Settings: 20° C.; dissolved at 80° C. then cooled to 20° C.

Quick note, Solubility in Ethanol for Cc1cc(OC(=O)CCC(=O)N(CCO)CC(O)CN(CCO)C(=O)CCC(=O)Oc2cc(C)c3c(c2)CCC(C)(CCCC(C)CCCC(C)CCCC(C)C)O3)cc2c1OC(C)(CCCC(C)CCCC(C)CCCC(C)C)CC2 (stereo not shown) [Example 2] landed at >5% wt/wt %

Quick note, Solubility in Ethanol for Cc1c(OC(=O)CCC(=O)N(CCO)CC(O)CN(CCO)C(=O)CCC(=O)Oc2cc3c(c(C)c2C)OC(C)(CCCC(C)CCCC(C)CCCC(C)C)CC3)cc2c(c1C)OC(C)(CCCC(C)CCCC(C)CCCC(C)C)CC2 (stereo not shown) [Example 3] landed at >5% wt/wt %

Quick note, Solubility in Ethanol for Cc1c(C)c2c(c(C)c1OC(=O)CCC(=O)N(CCO)CC(O)CN(CCO)C(=O)CCC(=O)Oc1c(C)c(C)c3c(c1C)CCC(C)(CCCC(C)CCCC(C)CCCC(C)C)O3)CCC(C)(CCCC(C)CCCC(C)CCCC(C)C)O2 (stereo not shown) [Example 1] landed at >5% wt/wt %

Quick note, Solubility in Ethanol for CCCCCCCCCCCCCCCCCCCCCCCC(=O)NC(CO)C(O)C(O)CCCCCCCCCCCCCC (stereo not shown) [Natural Ceramide (type 3), reference compound] landed at <1% wt/wt %

###

Test: Solubility of natural ceramide and ceramide-like compounds in cosmetic solvents
Format: physicochemical
Details: 20° C.; dissolved at 80° C. then cooled to 20° C.
Method: The solubility of a natural ceramide and of ceramide-like compounds: Ceramide Type 3 represented by the following formula (III) has been mainly used in cosmetics. Accordingly, in this experiment were compared solubility of the ceramide Type 3 (obtained from bovine brain) and the ceramide-like compounds of Examples 1 to 3 in various solvents such as ethanol, which have been widely used in cosmetics. Samples were dissolved in the solvents of 80° C. then cooled to 20° C.
PROPERTY LABEL: Solubility in Octyl dodecanol

Quick note, Solubility in Octyl dodecanol for Cc1c(C)c2c(c(C)c1OC(=O)CCC(=O)N(CCO)CC(O)CN(CCO)C(=O)CCC(=O)Oc1c(C)c(C)c3c(c1C)CCC(C)(CCCC(C)CCCC(C)CCCC(C)C)O3)CCC(C)(CCCC(C)CCCC(C)CCCC(C)C)O2 (stereo not shown) landed at >5% wt/wt %

Quick note, Solubility in Octyl dodecanol for Cc1cc(OC(=O)CCC(=O)N(CCO)CC(O)CN(CCO)C(=O)CCC(=O)Oc2cc(C)c3c(c2)CCC(C)(CCCC(C)CCCC(C)CCCC(C)C)O3)cc2c1OC(C)(CCCC(C)CCCC(C)CCCC(C)C)CC2 (stereo not shown) landed at >5% wt/wt %

Quick note, Solubility in Octyl dodecanol for CCCCCCCCCCCCCCCCCCCCCCCC(=O)NC(CO)C(O)C(O)CCCCCCCCCCCCCC (stereo not shown) [Natural Ceramide (type 3), reference compound] landed at <1% wt/wt %

Quick note, Solubility in Octyl dodecanol for Cc1c(OC(=O)CCC(=O)N(CCO)CC(O)CN(CCO)C(=O)CCC(=O)Oc2cc3c(c(C)c2C)OC(C)(CCCC(C)CCCC(C)CCCC(C)C)CC3)cc2c(c1C)OC(C)(CCCC(C)CCCC(C)CCCC(C)C)CC2 (stereo not shown) landed at >5% wt/wt %
